Tested on: COLO 205
procedure-summary: NCI tumour cell line growth inhibition, 48 h
Activity calls are given as the source filed them. Cut-off read from the data, not from the text of the source: active = GI50 up to about 1.1 µM and inactive = higher.
readout: GI50

The compound listed as "CCCCOC(=O)NC(Nc1ccc(S(=O)(=O)Nc2ccc(OC)nn2)cc1)(C(F)(F)F)C(F)(F)F" has a reported GI50 of > 100 µM (inactive)

CCOC(=O)C1=C(C)C2C=C(c3cccs3)CC(c3ccc(Cl)cc3)=C2OC1=O (stereo not given) has a reported GI50 of 40.9 µM (inactive)

Reported GI50 of CC1(CO)OC1COCc1ccccc1 (stereo not given) : > 100 µM (inactive)

The measured GI50 associated with "Cc1ccc(-c2c(C#N)c(-c3ccc(C)cc3)n(NS(=O)(=O)c3ccccc3)c(=O)c2C#N)cc1" reads 89.5 µM (inactive)

Reported GI50 of "CO/C=C1\OC(=O)C=C1OC" : > 100 µM (inactive)

More entries:
Reported GI50 of "NCCC1(N)CCNCC1" : > 100 µM (inactive)

The recorded GI50 for C/C=C(\C)c1cc(=O)c2c(C)cc3c(c2o1)C(OC)(OC(C)=O)c1c(O)c(C2CC(C)(N(C)C)C(OC(C)=O)C(C)O2)cc(C2CC(N(C)C)C(OC(C)=O)C(C)O2)c1C3=O (stereo not given) is 1.24 µM (inactive)

According to the records, this compound COC(=O)CNC(=O)CCC(C)[C@H]1CCC2C3C(C[C@H](OC(C)=O)[C@@]21C)[C@@]1(C)CCC2(C[C@H]1C[C@H]3OC(C)=O)OOC1(CCCCC1)OO2 (stereo not given in full) displays GI50 of 1.91 µM (inactive)

For this compound ( "C=C1c2ccccc2C(=O)c2c1c1c(C(=O)OC)c(O)ccc1n2Cc1ccccc1" ), measured GI50 is 1.97 µM (inactive)

For "CCc1ccc2oc(=O)ccc2c1" the compound record lists GI50 as > 100 µM (inactive)

---

Listed compounds paired with reported GI50
Tested on: 786-0
procedure-summary: NCI tumour cell line growth inhibition, 48 h
Active and inactive are the calls of the source. No stated cut-off is given here; in the data, active = GI50 up to about 1.1 µM and inactive = higher.

Item: "COc1cc(C(=O)N(C(=O)N2CCCCC2)c2ccccc2)cc(OC)c1OC" | GI50: > 100 µM (inactive)

# compound "Cc1ccc(C(=O)NCc2ccccc2)cc1/N=N/N(C)C" ; its GI50 = > 100 µM (inactive)

Input COc1cc2c(c(OC)c1OC)-c1ccc(SC)c(=O)cc1C(NC(=O)c1ccccc1)CC2 (configuration not stated) . Output GI50: < 0.01 µM (active)

# compound "CCCCCCc1cc2cc(-c3cn4ccsc4n3)c(=O)oc2cc1O" ; its GI50 = > 56.9 µM (inactive)

get_value(item= "CC(=O)Nc1ccccc1-c1cnc2ccccc2n1" , readout=GI50) returns > 100 µM (inactive)

---
Kindly note the recorded GI50 for COc1ccc(C2SCC(=O)N2NC(=O)c2ccc(NC(C)=O)cc2)cc1 (configuration not stated) , which is > 100 µM (inactive)

The compound CC1(C)CCCCCC(O)C(O)CCC(C)(C)C1=O (configuration not stated) showed GI50 equal to > 100 µM (inactive)

---

Each entry below carries its recorded GI50.
Test system: U-251
procedure-summary: NCI tumour cell line growth inhibition, 48 h
Activity calls are given as the source filed them. Rule as the data show it: active = GI50 up to about 1.1 µM and inactive = higher.

Input CCOC(=O)CC1(O)CCCCC1(Sc1ccc(C)cc1)Sc1ccc(C)cc1 (stereo not drawn) . Output GI50: 33.7 µM (inactive)

The molecule listed as CC1(C)C(=O)c2ccccc2OC1N1CCN(C2Oc3ccccc3C(=O)C2(C)C)CC1 (stereo not drawn) has a reported GI50 of > 100 µM (inactive)

Okay, next one:
The reported value for "Cc1c(/C=N/NC(=O)c2ccccc2)c(=O)n(-c2ccccc2)n1C" in terms of GI50 is > 100 µM (inactive)

---

Tested on: CCRF-CEM
procedure-summary: NCI tumour cell line growth inhibition, 48 h
Active and inactive are the calls of the source. Rule as the data show it: active = GI50 up to about 1.1 µM and inactive = higher.
Entry note: the call must match one of active, inactive

Query string: Assay result, entry "CN(Nc1cc(=O)[nH]c(=O)[nH]1)c1ccccc1" — outcome?
Result string: inactive

Query string: Hello, I am checking results. What call was entered for "O=C(O)/C(=C\c1ccccc1)Cc1ccccc1" ?
Result string: inactive

Query string: Each molecule tested received a call. Report the one for "O=[N+]([O-])c1cc(-c2nc(-c3ccccc3)c(-c3ccccc3)[nH]2)c(O)c([N+](=O)[O-])c1" .
Result string: inactive

Query string: Please let me know the test result on file for "C=CCn1c(N)c(C#N)c(C#N)c1-c1ccccc1" .
Result string: inactive

Query string: Field: outcome | Entry: CCOC(=O)C1=C(C)C2C=C(c3cccs3)CC(c3ccc(Cl)cc3)=C2OC1=O (stereo unspecified)
Result string: inactive

Continuing:
Query string: Per the records of this test, what outcome belongs to "Cc1cc(-c2c(F)cc3c4nn([C@H]5CC[C@@H](N(C)C)CC5)c(=O)c-4cn(C4CC4)c3c2F)cc(C)n1" ?
Result string: active

Query string: I would be grateful if you could indicate the recorded call for CC(C(=O)c1ccccc1)C1(O)C(=O)Nc2ccccc21 (stereo unspecified) .
Result string: inactive

Query string: For this molecule, state the assay outcome: "CCOC(=O)/C(=C\c1ccc(C#N)cc1)C(C)=O"
Result string: inactive

---

Test system: SK-MEL-2
procedure-summary: NCI tumour cell line growth inhibition, 48 h
Active and inactive are the calls of the source. No stated cut-off is given here; in the data, active = GI50 up to about 1.1 µM and inactive = higher.
# key: entry, value: GI50

GET /value?item= "O=C(/C=C1\Sc2ccccc2N=C1CC(=O)c1ccccc1)c1ccccc1" &field=GI50 returns 17.3 µM (inactive)

New cases:
GI50 measured on "CC[C@@H]1C[C@H]2CC3c4[nH]c5ccc(O)cc5c4CCN(C2)C31" = > 100 µM (inactive)

Per the record, "O=C1C=C(NCCc2ccccc2)c2ccccc2C1=O" has GI50 of 1.91 µM (inactive)

---

Tested on: HCC 2998
procedure-summary: NCI tumour cell line growth inhibition, 48 h
The source made the active and inactive calls. No stated cut-off is given here; in the data, active = GI50 up to about 1.1 µM and inactive = higher.
readout: GI50

Check out these entries, answers already filled in.
// field: GI50; key: C=CCc1cc(OC)c2c(c1)C(OC)CC(c1ccc(OC)c(OC)c1)O2 (configuration not stated) ; value = > 100 µM (inactive)

The compound identified as "Cc1c(N=C(S)Nc2ccc(Cl)cc2)c(=O)n(-c2ccccc2)n1C" registered its GI50 at > 100 µM (inactive)

Kindly note the recorded GI50 for CC1(C)C(=O)c2ccccc2OC1N1CCN(C2Oc3ccccc3C(=O)C2(C)C)CC1 (configuration not stated) , which is > 100 µM (inactive)

Record "O=C1CCCCC[C@]12SC[C@H]1CON=C12" . Reported GI50: 29.1 µM (inactive)

The measured GI50 associated with "CCCCCCc1cc2cc(-c3cn4ccsc4n3)c(=O)oc2cc1O" reads > 100 µM (inactive)

The reported value for Cc1ccc2c(c1)OC1Nc3ccccc3C1=C2O (configuration not stated) in terms of GI50 is 14.2 µM (inactive)

According to the records, this compound CC(=O)OCC(C)C1=C(OC(C)=O)C(=O)C2(C)C/C=C(/C)CC/C=C(\C)CCC(OC(C)=O)C(C)CCC12 (configuration not stated) displays GI50 of 15.8 µM (inactive)

Measured GI50, "CC1=NOC(=O)/C1=C/c1ccccc1O" : > 100 µM (inactive)

Switching to the query record.
Entry COc1cc(C2c3cc4c(cc3OC3(O)COC(=O)C23)OCO4)cc(OC)c1OC (configuration not stated) ; GI50 = 70 µM (inactive)

---

Tested on: SW-620
procedure-summary: NCI tumour cell line growth inhibition, 48 h
Active and inactive are the calls of the source. No stated cut-off is given here; in the data, active = GI50 up to about 1.1 µM and inactive = higher.
readout: GI50

Data point: COC(=O)c1ccccc1CC(Cc1ccc2c(c1)CCC2)C(=O)OC (stereo unspecified) ; GI50 = > 100 µM (inactive)

Documented GI50 of N#CC1=C(N)N2C(=O)/C(=C/c3ccccc3)SC2C(c2nc3ccccc3[nH]2)=C1c1ccccc1 (stereo unspecified) : 3.68 µM (inactive)

Reported GI50 of "CC(=O)Nc1ccc(NCC(=O)Nn2cnc3ccc(S(=O)(=O)Nc4ccc(NC(C)=O)cc4)cc3c2=O)cc1" : > 100 µM (inactive)

Item: "CCOC(=O)NC(Nc1cccc(C(F)(F)F)c1)(C(F)(F)F)C(F)(F)F" | GI50: > 100 µM (inactive)

// GI50 lookup, compound = "COc1cc2c(NCCCCCO)ncnc2c(OC)c1OC" , result: > 100 µM (inactive)

---

System: SNB-19
procedure-summary: NCI tumour cell line growth inhibition, 48 h
Calls of active or inactive are those of the source. Cut-off read from the data, not from the text of the source: active = GI50 up to about 1.1 µM and inactive = higher.
Here the recorded GI50 is given for each entry.

Measured GI50, "C#CCSc1cnc2ccccc2c1Sc1c[nH]c2ccccc2c1=O" : 16.1 µM (inactive)

GI50 recorded for this compound, O=C1OC(O)C(Oc2c(Cl)cccc2Cl)=C1Cl (stereo not drawn) , is 27.5 µM (inactive)

// GI50 value for CC(C)C(NCc1c(O)ccc2c(-c3ccccc3)cc(=O)oc12)C(=O)O (stereo not drawn) : > 100 µM (inactive)

GI50 reported for this compound "CO[C@@H]1/C=C\C=C(/C)C(=O)NC2=CC(=O)C(NCCN(C)C)=C(C[C@@H](C)C[C@@H](OC)[C@@H](O)[C@H](C)/C=C(\C)[C@H]1OC(N)=O)C2=O" : < 0.0236 µM (active)

Others:
Just so you know, measured GI50 for "C=C1CC[C@@]2(C)[C@@H]([C@@H]1C)[C@H]1CC[C@@H]3[C@@]4(C)CC[C@H](O)C(C)(C)[C@@H]4CC[C@@]3(C)[C@]1(C)C[C@@H]2O" came out at 2.32 µM (inactive)

Query "COc1cccc([C@@H]2CC(=O)c3cc4c(cc3N2)OCO4)c1" yields GI50 of > 100 µM (inactive)

// COc1cc2c(c(OC)c1OC)-c1ccc(SC)c(=O)cc1C(NC(=O)c1ccccc1)CC2 (stereo not drawn) : GI50 value = < 0.01 µM (active)

Summary for this compound, CCn1c2c(c3ccccc31)[C@@H](c1ccc(Cl)cc1)CC1C(=O)N(c3ccccc3)C(=O)C21 (stereo partly drawn) : GI50 is > 100 µM (inactive)

Per the record, CC(NCCS(=O)(=O)O)C(=O)O (stereo not drawn) has GI50 of > 100 µM (inactive)

# GI50 of "Cc1oc2c(c1C)S(=O)(=O)C(C#N)=C(c1ccccc1)N2" = > 100 µM (inactive)

Entry "Cc1ccc(-c2c(C#N)c(-c3ccc(C)cc3)n(NS(=O)(=O)c3ccccc3)c(=O)c2C#N)cc1" — recorded GI50 = 42.1 µM (inactive)

For reference, reported GI50 for "O=C(/C=C1\Sc2ccccc2N=C1CC(=O)c1ccccc1)c1ccccc1" stands at 69.7 µM (inactive)

Noted for Cc1cccc2c1C(=O)OC2(C)c1cccc2ccccc12 (stereo not drawn) : its GI50 reads 78.5 µM (inactive)
